Target: T1, recombinant human MASP1 active protease (amino acids 297-699, C-terminal His Tag) (human, UniProt P48740 297-699)
T1 sequence: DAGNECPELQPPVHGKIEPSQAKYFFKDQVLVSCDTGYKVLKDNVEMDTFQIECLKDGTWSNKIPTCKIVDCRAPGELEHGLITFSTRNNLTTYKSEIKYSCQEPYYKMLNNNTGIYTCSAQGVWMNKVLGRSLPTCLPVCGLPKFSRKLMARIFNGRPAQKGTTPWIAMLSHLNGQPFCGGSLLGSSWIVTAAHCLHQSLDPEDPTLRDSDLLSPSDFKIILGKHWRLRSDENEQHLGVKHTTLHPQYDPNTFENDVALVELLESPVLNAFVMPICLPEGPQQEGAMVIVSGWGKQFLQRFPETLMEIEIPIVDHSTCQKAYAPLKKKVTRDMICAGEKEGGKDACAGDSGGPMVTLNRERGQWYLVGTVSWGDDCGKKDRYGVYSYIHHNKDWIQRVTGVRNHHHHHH
Test: cell-based or functional assay
Numbered stars: 1 amine (or outer) side, 2 acyl side, 3 side chain; on linkers, the order of the positions; unused ones are H or OH. Bridge positions count the residues as written; N and C are the ends. Square brackets hold non-standard residues; d marks the D form. Ends that are not written are not given here. TTDS = 1,13-diamino-4,7,10-trioxatridecan-succinamic acid, O=C(CCC(=O)[*:2])NCCCOCCOCCOCCCN[*:1]; Hyp = O=C(O)[C@@H]1C[C@@H](O)CN1; tBuAla = CC(C)(C)C[C@H](N)C(=O)O; Pen = CC(C)(S)[C@H](N)C(=O)O; Tranexamic = tranexamic acid
Property: human MASP1 IC50 (nM)
The reply should be a number in nM, with the unit left off.

1. [Tranexamic]ICSRS[tBuAla]PPI[Pen]IP[TTDS]-NH2 (disulfide 3-11) [Example 429: (Tranexamic)-IC+SRS-((tBu)A)-PPI-(Pen)+IP-(TTDS)-NH2]	6.9

Per the record, GICSRSLPPICI[Hyp]D-OH (disulfide 3-11; N-terminus assumed; SMILES CC[C@H](C)[C@H](NC(=O)CN)C(=O)N[C@H]1CSSC[C@@H](C(=O)N[C@H](C(=O)N2C[C@H](O)C[C@H]2C(=O)N[C@@H](CC(=O)O)C(=O)O)[C@@H](C)CC)NC(=O)[C@H]([C@@H](C)CC)NC(=O)[C@@H]2CCCN2C(=O)[C@@H]2CCCN2C(=O)[C@H](CC(C)C)NC(=O)[C@H](CO)NC(=O)[C@H](CCCNC(=N)N)NC(=O)[C@H](CO)NC1=O) [Example 348: GIC+SRSLPPIC+I-(Hyp)-D-OH] has human MASP1 IC50 of 28
